assayed_system: Carbonic anhydrase 1 (Homo sapiens, UniProt P00915)
Sequence (P00915 whole entry): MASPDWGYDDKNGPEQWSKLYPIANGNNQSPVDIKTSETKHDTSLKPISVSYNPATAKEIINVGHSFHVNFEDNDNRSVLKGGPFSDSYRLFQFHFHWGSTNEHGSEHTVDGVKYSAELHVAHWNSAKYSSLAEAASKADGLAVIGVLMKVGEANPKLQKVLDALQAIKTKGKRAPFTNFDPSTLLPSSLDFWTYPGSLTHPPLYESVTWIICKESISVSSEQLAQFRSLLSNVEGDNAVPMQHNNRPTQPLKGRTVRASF
Catalogue of pKi readings, one per entry.
On this scale, pKi is minus log10 of a concentration expressed in M (mol/L).

Completed entries (count: 10):
>  <smiles_representation>
Cc1cc(C)[n+](CC(=O)NNc2ccc(S(N)(=O)=O)cc2)c(C)c1

>  <value_measured>
4.46

$$$$
>  <smiles_representation>
CCc1cc(-c2ccccc2)cc(CC)[n+]1CC(=O)Nc1ccc(S(N)(=O)=O)cc1Cl

>  <value_measured>
6.21

$$$$
>  <smiles_representation>
Cc1cc(C)[n+](CC(=O)Nc2nccc(Nc3ccc(S(N)(=O)=O)cc3)n2)c(C)c1

>  <value_measured>
7.28

$$$$
>  <smiles_representation>
Cc1cc(-c2ccccc2)cc(C)[n+]1CC(=O)Nc1ccc(S(N)(=O)=O)cc1I

>  <value_measured>
6.21

$$$$
>  <smiles_representation>
Cc1cc(C)[n+](CC(=O)Nc2c(S(N)(=O)=O)cc(S(N)(=O)=O)c(Cl)c2Cl)c(C)c1

>  <value_measured>
6.26

$$$$
>  <smiles_representation>
CC(C)c1cc(-c2ccccc2)cc(C(C)C)[n+]1CC(=O)Nc1ccc(S(=O)(=O)Nc2ccc(S(N)(=O)=O)cc2)cc1

>  <value_measured>
7.30

$$$$
>  <smiles_representation>
Cc1cc(C)[n+](CC(=O)Nc2ccc3nc(S(N)(=O)=O)sc3c2)c(C)c1

>  <value_measured>
7.82

$$$$
>  <smiles_representation>
Cc1cc(C)[n+](CC(=O)OCCc2ccc(S(N)(=O)=O)cc2)c(C)c1

>  <value_measured>
5.77

$$$$
>  <smiles_representation>
Cc1cc(-c2ccccc2)cc(C)[n+]1CC(=O)Nc1ccc(S(N)(=O)=O)cc1Br

>  <value_measured>
6.22

$$$$
>  <smiles_representation>
CCc1cc(-c2ccccc2)cc(CC)[n+]1CC(=O)Nc1cccc(S(N)(=O)=O)c1

>  <value_measured>
4.66

$$$$

Lab entry: Carbonic anhydrase 1 (Homo sapiens, UniProt P00915) assay, compound CC(C)c1cc(-c2ccccc2)cc(C(C)C)[n+]1CC(=O)Nc1ccc(S(N)(=O)=O)cc1Br , pKi = 6.19

# lookup: CCc1cc(-c2ccccc2)cc(CC)[n+]1CC(=O)Nc1c(S(N)(=O)=O)cc(S(N)(=O)=O)c(Cl)c1Cl on Carbonic anhydrase 1 (Homo sapiens, UniProt P00915), pKi = 6.40

Summary: Cc1cc(C)[n+](CC(=O)Nc2cccc(S(N)(=O)=O)c2)c(C)c1 , Carbonic anhydrase 1 (Homo sapiens, UniProt P00915), pKi = 4.62

Case CC(C)c1cc(-c2ccccc2)cc(C(C)C)[n+]1CC(=O)OCCOc1ccc2nc(S(N)(=O)=O)sc2c1 , Carbonic anhydrase 1 (Homo sapiens, UniProt P00915), pKi recorded as 7.96

The reported numbers originate from ChEMBL document CHEMBL1133669.
